- System under test: UniProtKB Q6I9B6
- Sequence (whole entry): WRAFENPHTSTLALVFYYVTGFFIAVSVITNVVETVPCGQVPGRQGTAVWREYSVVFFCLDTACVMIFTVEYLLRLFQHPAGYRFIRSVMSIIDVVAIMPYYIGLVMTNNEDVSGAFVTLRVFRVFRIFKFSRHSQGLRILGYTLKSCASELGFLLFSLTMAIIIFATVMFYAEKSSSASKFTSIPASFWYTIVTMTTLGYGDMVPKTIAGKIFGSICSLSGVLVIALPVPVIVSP
- Experiment: Activation of potassium channel in Rattus norvegicus (rat) aortic rings assessed as inhibition of phenylepinephrine-induced contractile response
- Condition set: Aorta
Property measured: pD2

- Compound: "CC1CC(=O)C2=C(C1)NC1=C(C(=O)CC(C)C1)C2c1c(F)cccc1C(F)(F)F (stereo unspecified)"
  Property measured: "pD2"
  Numeric readout: 4.6
- Compound: "CC(N/C(=N\\C#N)Nc1ccncc1)C(C)(C)C (stereo unspecified)"
  Property measured: "pD2"
  Numeric readout: 4.71
- Compound: "CC1CC(=O)C2=C(C1)NC1=C(C(=O)CC(C)C1)C2c1cccc(C(F)(F)F)c1Cl (stereo unspecified)"
  Property measured: "pD2"
  Numeric readout: 4.23
- Compound: "CC1CC(=O)C2=C(C1)NC1=C(C(=O)CC(C)C1)C2c1ccc(C(F)(F)F)cc1F (stereo unspecified)"
  Property measured: "pD2"
  Numeric readout: 4.12
- Compound: "CC1CC(=O)C2=C(C1)NC1=C(C(=O)CC(C)C1)C2c1c(C(F)(F)F)ccc(Cl)c1F (stereo unspecified)"
  Property measured: "pD2"
  Numeric readout: 4.38
- Compound: "CC1CC(=O)C2=C(C1)NC1=C(C(=O)CC(C)C1)C2c1ccc(F)c(C(F)(F)F)c1 (stereo unspecified)"
  Property measured: "pD2"
  Numeric readout: 4.13

###

- System under test: Potassium channel protein (Rattus norvegicus) (UniProt Q6I9B6)
- Experiment: Activation of potassium channel in Rattus norvegicus (rat) aortic rings assessed as inhibition of phenylepinephrine-induced contractile response in presence of calcium activated potassium channel inhibitor TEA relative to control
- Condition set: Aorta
Property measured: Emax (%)

- Compound: "CC1CC(=O)C2=C(C1)NC1=C(C(=O)CC(C)C1)C2c1cccc(C(F)(F)F)c1Cl (stereo not given)"
  System under test: "Potassium channel protein (Rattus norvegicus) (UniProt Q6I9B6)"
  Unit descriptor: "%"
  Numeric readout: 19.8
- Compound: "CC1CC(=O)C2=C(C1)NC1=C(C(=O)CC(C)C1)C2c1ccc(C(F)(F)F)cc1F (stereo not given)"
  System under test: "Potassium channel protein (Rattus norvegicus) (UniProt Q6I9B6)"
  Unit descriptor: "%"
  Numeric readout: 27.7
- Compound: "CC(N/C(=N\\C#N)Nc1ccncc1)C(C)(C)C (stereo not given)"
  System under test: "Potassium channel protein (Rattus norvegicus) (UniProt Q6I9B6)"
  Unit descriptor: "%"
  Numeric readout: 18.5
- Compound: "CC1CC(=O)C2=C(C1)NC1=C(C(=O)CC(C)C1)C2c1ccc(F)c(C(F)(F)F)c1 (stereo not given)"
  System under test: "Potassium channel protein (Rattus norvegicus) (UniProt Q6I9B6)"
  Unit descriptor: "%"
  Numeric readout: 15.5
- Compound: "CC1CC(=O)C2=C(C1)NC1=C(C(=O)CC(C)C1)C2c1c(F)cccc1C(F)(F)F (stereo not given)"
  System under test: "Potassium channel protein (Rattus norvegicus) (UniProt Q6I9B6)"
  Unit descriptor: "%"
  Numeric readout: 21.8
